# measured_on: isopenicillin N epimerase (Streptomyces clavuligerus, UniProt P18549)
# Construct: Approximately 250 g of frozen whole cells of S. clavuligerus were thawed and homogenated; made in house; host or cells: Streptomyces clavuligerus NRRL 18491 (native producer; the endogenous enzyme was purified from cell-free extract, not made recombinantly)
# Sequence (P18549 whole entry): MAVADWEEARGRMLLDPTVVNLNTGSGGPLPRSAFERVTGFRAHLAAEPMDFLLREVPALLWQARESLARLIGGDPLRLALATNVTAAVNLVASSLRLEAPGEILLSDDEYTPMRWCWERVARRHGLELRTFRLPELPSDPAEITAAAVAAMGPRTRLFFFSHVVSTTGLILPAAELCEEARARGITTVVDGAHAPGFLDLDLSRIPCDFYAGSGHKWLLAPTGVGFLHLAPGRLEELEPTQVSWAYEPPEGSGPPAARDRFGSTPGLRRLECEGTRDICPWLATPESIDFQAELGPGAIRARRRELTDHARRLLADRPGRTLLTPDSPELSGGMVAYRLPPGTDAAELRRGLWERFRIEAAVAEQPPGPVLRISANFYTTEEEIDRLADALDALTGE
# method: Epimerase activity assay (product formation from isopenicillin N / penicillin N, quantitated by HPLC after o-phthaldialdehyde derivatization)
# Assay type: biochemical
# settings: compound as epimerase substrate at 1.4 mM; Isopenicillin N = 100; read-out: Relative Activity (%)
test_readout: Activity (%)
Give bare numbers, in %.

>>> value_observed("N[C@@H](CCCC(=O)O)C(=O)O")
0
>>> value_observed("CC1(C)S[C@@H]2[C@H](NC(=O)CCC[C@H](N)C(=O)O)C(=O)N2[C@H]1C(=O)O")
100
>>> value_observed("N[C@H](CCCC(=O)O)C(=O)O")
0
>>> value_observed("CC(C)[C@@H](NC(=O)[C@H](CS)NC(=O)CCC[C@H](N)C(=O)O)C(=O)O")
0
>>> value_observed("CC(=O)OCC1=C(C(=O)O)N2C(=O)[C@@H](NC(=O)CCC[C@@H](N)C(=O)O)[C@H]2SC1")
0

Here's the next entry for you.
Query string: Please respond with reported Activity (system isopenicillin N epimerase (Streptomyces clavuligerus, UniProt P18549)) for "CC1(C)S[C@@H]2[C@H](NC(=O)CCC[C@@H](N)C(=O)O)C(=O)N2[C@H]1C(=O)O" .
Result string: 204

----------
# measured_on: isopenicillin N epimerase (Streptomyces clavuligerus, UniProt P18549)
# Construct: Approximately 250 g of frozen whole cells of S. clavuligerus were thawed and homogenated; made in house; host or cells: Streptomyces clavuligerus NRRL 18491 (native producer; the endogenous enzyme was purified from cell-free extract, not made recombinantly)
# method: Epimerase activity assay (product formation from isopenicillin N / penicillin N, quantitated by HPLC after o-phthaldialdehyde derivatization)
# Type: biochemical
# settings: compound at 1.0 mM
test_readout: inhibition at 1000 µM (%)
Numbers only, in %.

Reference set, count: 5
>>> value_observed("O=CC(=O)c1ccccc1")
33
>>> value_observed("N[C@@H]1CONC1=O")
23
>>> value_observed("CC(C)NNC(=O)c1ccncc1")
25
>>> value_observed("NC(=O)CI [Iodoacetamide]")
28
>>> value_observed("CCN1C(=O)C=CC1=O [N-Ethylmaleimide]")
45

Here's the next entry for you.
Query string: Please report inhibition at 1000 µM for the following molecule: "NNC(=O)c1ccncc1"
Result string: 23

src = patent EP0403172A2
